Molecular target: CDK3/Cyclin E (Homo sapiens) (UniProt P24864+Q00526);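 further: reported percentages are mean inhibition values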
Sequence (P24864 whole entry, looked up): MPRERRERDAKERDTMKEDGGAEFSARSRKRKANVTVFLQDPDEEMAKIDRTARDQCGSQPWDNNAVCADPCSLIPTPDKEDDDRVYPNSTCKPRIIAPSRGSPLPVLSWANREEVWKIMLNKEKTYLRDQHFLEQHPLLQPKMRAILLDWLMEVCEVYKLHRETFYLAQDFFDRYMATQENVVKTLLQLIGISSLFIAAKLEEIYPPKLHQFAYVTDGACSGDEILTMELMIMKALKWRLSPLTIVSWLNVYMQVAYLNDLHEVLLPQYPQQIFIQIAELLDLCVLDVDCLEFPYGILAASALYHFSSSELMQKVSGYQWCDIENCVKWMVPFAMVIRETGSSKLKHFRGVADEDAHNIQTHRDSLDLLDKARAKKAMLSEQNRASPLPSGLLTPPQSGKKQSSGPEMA
Sequence (Q00526 whole entry, looked up): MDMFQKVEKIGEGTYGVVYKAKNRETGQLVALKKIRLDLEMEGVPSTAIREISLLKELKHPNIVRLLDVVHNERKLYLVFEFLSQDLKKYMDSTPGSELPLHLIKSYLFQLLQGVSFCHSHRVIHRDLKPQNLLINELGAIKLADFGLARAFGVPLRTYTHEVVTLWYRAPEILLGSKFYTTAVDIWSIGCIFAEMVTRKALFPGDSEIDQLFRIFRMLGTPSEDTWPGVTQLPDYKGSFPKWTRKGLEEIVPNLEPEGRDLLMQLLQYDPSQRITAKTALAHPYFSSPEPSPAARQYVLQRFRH
Settings: at 0.1 µM

smiles_text: Nc1nccc(C#Cc2cncnc2Nc2ccc(OCc3cccc(F)c3)c(Cl)c2)n1
inhibition, %: 1.09
--
smiles_text: Cc1cc(Cl)cc2c1NC(=O)C2=NNc1ccc(S(N)(=O)=O)cc1
inhibition, %: 3.25
--
smiles_text: COc1cccc(-n2nc(C)c3c(N/N=C(\C)c4ccncc4)ncnc32)c1
inhibition, %: -0.92
--
smiles_text: CS(=O)(=O)Nc1cccc(-c2ccc3c(NC(=O)C4CC4)n[nH]c3c2)c1
inhibition, %: 2.08
--
smiles_text: Cc1ccc2c(-c3ccnc(Nc4cccc(C(F)(F)F)c4)n3)c(-c3ccccc3)nn2n1
inhibition, %: -1.21
--
smiles_text: [O-][S+]1CCN(Cc2ccc(-c3ccc4ncnc(Nc5ccc(OCc6ccccc6)c(Cl)c5)c4c3)o2)CC1
inhibition, %: -1.53
--
smiles_text: CN(c1ccc(NC(=O)Nc2ccc(OC(F)(F)F)cc2)cc1)c1ccnc(Nc2cccc(S(N)(=O)=O)c2)n1
inhibition, %: -0.62
--
smiles_text: COc1cc(Nc2nccc(-c3cnn4ncccc34)n2)cc(OC)c1
inhibition, %: 34.6
--
smiles_text: COc1cccc(-n2ncc3c(N/N=C/c4ccc(C)cc4)ncnc32)c1
inhibition, %: -3.32
--
smiles_text: C[C@@H](Oc1cc(-n2cnc3ccc(OCC4CCN(C)CC4)cc32)sc1C(N)=O)c1ccccc1C(F)(F)F
inhibition, %: -1.54
--
smiles_text: CCS(=O)(=O)c1ccc(OC)c(Nc2nccc(N(C)c3ccc4c(C)n[nH]c4c3)n2)c1
inhibition, %: 0.61
--
smiles_text: ON=C1CCc2cc(-c3nc(C4CCNCC4)[nH]c3-c3ccncc3)ccc21
inhibition, %: 2.27
--
smiles_text: COc1cc2ncnc(Nc3ccc4c(cnn4Cc4ccccc4)c3)c2cc1OC
inhibition, %: -0.7
--
smiles_text: NC(=O)c1sc(-n2cnc3ccccc32)cc1OCc1ccccc1Br
inhibition, %: -2.25
--
smiles_text: CCOc1nccc2c1nc(-c1nonc1N)n2CC
inhibition, %: 2.48
--
smiles_text: O=C1Nc2ccc(-c3cccnc3)cc2C1=Cc1cc(Br)c(O)c(Br)c1
inhibition, %: 0.27
--
smiles_text: NC(=O)c1cccc(Nc2nccc(Nc3cccc(F)c3)n2)c1
inhibition, %: 0.62
--
smiles_text: c1ccc(Nc2ncc(-c3ccccc3)o2)cc1
inhibition, %: 0.23
--
smiles_text: CN(C)C(=O)O[C@@H]1CN[C@@H](C#Cc2cc3ncnc(Nc4ccc(OCc5cccc(F)c5)c(Cl)c4)c3s2)C1
inhibition, %: 3.66
--
smiles_text: Cc1ccc2c(-c3ccnc(Nc4ccc5c(c4)OCCO5)n3)c(-c3ccc(C(F)(F)F)cc3)nn2n1
inhibition, %: -0.58

---

The molecules listed here are annotated with their inhibition.
Molecular target: Serine/threonine-protein kinase 3 (Homo sapiens) (UniProt Q13188);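 further: reported value is the mean percent inhibition of MST2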
Sequence (Q13188 whole entry): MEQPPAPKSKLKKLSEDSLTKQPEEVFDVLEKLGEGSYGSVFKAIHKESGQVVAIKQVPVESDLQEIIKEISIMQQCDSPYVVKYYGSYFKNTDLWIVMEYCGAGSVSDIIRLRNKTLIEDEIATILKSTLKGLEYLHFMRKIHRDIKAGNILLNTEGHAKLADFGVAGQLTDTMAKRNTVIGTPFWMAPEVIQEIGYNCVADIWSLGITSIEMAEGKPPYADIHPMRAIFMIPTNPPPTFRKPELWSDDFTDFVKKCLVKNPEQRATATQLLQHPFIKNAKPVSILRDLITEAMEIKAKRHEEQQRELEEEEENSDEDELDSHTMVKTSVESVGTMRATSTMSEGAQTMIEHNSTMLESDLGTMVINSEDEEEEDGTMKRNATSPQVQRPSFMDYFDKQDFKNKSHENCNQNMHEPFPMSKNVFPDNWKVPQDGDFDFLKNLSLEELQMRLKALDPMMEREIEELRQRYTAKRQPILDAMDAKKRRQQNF
Conditions: at 0.1 µM

molecule: Nc1nccc(C#Cc2cncnc2Nc2ccc(OCc3cccc(F)c3)c(Cl)c2)n1
inhibition: 6.63%
//
molecule: NS(=O)(=O)c1cccc(Nc2cc(-c3ccc(F)cc3)n[nH]2)c1
inhibition: 7.41%
//
molecule: Nc1nccc(-c2c(-c3ccc(F)cc3)ncn2CCCN2CCOCC2)n1
inhibition: 4.5%
//
molecule: O=S(=O)(CCOCc1ccc(-c2ccc3ncnc(Nc4ccc(OCc5cccc(F)c5)c(Cl)c4)c3c2)o1)c1ccccc1
inhibition: 0.99%
//
molecule: Oc1cccc(-c2nc(-c3ccccc3)[nH]c2-c2ccncc2)c1
inhibition: 5.44%
//
molecule: CCn1c(-c2nonc2N)nc2c(C#CC(C)(C)O)nc(OCCNC)cc21
inhibition: 5.27%
//
molecule: Cc1ccc2c(-c3ccnc(Nc4ccc5c(c4)OCCO5)n3)c(-c3ccc(C(F)(F)F)cc3)nn2n1
inhibition: 0.03%
//
molecule: Cc1cc(Cl)cc2c1NC(=O)C2=NNc1ccc(S(N)(=O)=O)cc1
inhibition: 3.69%
//
molecule: CCS(=O)(=O)c1ccc(OC)c(Nc2nccc(N(C)c3ccc4c(C)n[nH]c4c3)n2)c1
inhibition: 4.58%
//
molecule: COc1cccc(-n2ncc3c(N/N=C/c4ccc(S(C)(=O)=O)cc4)ncnc32)c1
inhibition: 0.59%
//
molecule: CCCN1CCCC(c2ccc(Nc3nc(Nc4cc(F)ccc4C(N)=O)c4cc[nH]c4n3)c(OC)c2)C1 (stereo unspecified)
inhibition: 6.09%
//
molecule: Cc1ccc(Nc2ccnc(Nc3cccc(C(N)=O)c3)n2)cc1O
inhibition: 4.59%
//
molecule: COc1cccc(-n2ncc3c(N/N=C/c4ccc(C)cc4)ncnc32)c1
inhibition: 6.16%
//
molecule: CC(C)c1ccc(Nc2nccc(-c3cnn4ncccc34)n2)cc1
inhibition: 5.07%
//
molecule: Nc1nccc(-c2c(-c3ccc(F)cc3)nn3cc(C(F)(F)F)ccc23)n1
inhibition: -0.79%
//
molecule: COc1cc2ncnc(Nc3ccc(C)c(O)c3)c2cc1OC
inhibition: 5.84%
//
molecule: CN(C)C(=O)O[C@@H]1CN[C@@H](C#Cc2cc3ncnc(Nc4ccc(OCc5cccc(F)c5)c(Cl)c4)c3s2)C1
inhibition: -2.45%
//
molecule: NC(=O)c1cccc(Nc2nccc(Nc3cccc(F)c3)n2)c1
inhibition: 1.63%
//
molecule: FC(F)(F)c1ccc(-c2nn3ncccc3c2-c2ccnc(Nc3ccc4c(c3)OCCO4)n2)cc1
inhibition: 4.21%
//
molecule: CS(=O)(=O)CCNCc1nc(-c2ccc3ncnc(Nc4ccc(OCc5cccc(C(F)(F)F)c5)cc4)c3c2)cs1
inhibition: 4.17%
//
molecule: Cc1ccc(NC(=O)CC2CC2)cc1-c1ccc(C(=O)NCC2CC2)cc1
inhibition: 4.49%
//
molecule: NS(=O)(=O)c1ccc(N/N=C2\C(=O)Nc3ccc(Cl)cc32)cc1
inhibition: 16.8%
//
molecule: O=C1Nc2ccccc2/C1=C/Nc1ccc2[nH]c(=O)[nH]c2c1
inhibition: 15.5%
//
molecule: Cc1cc(-c2ccccn2)cc(C)c1/C=C/c1cncc(-c2nn[nH]n2)c1
inhibition: 3.7%
//
molecule: CN(C)c1cc2c(Nc3ccc4c(cnn4Cc4ccccc4)c3)ncnc2cn1
inhibition: 4.54%
//
molecule: c1ccc(Nc2ncc(-c3ccccc3)o2)cc1
inhibition: 4.89%
//
molecule: COc1ccc2ncnc(Nc3ccc(OCc4ccccc4)cc3)c2c1
inhibition: 1.62%
//
molecule: C[C@@H](Oc1cc(-n2cnc3ccc(OCC4CCN(C)CC4)cc32)sc1C(N)=O)c1ccccc1C(F)(F)F
inhibition: 11.4%
//
molecule: COc1cc2ncn(-c3cc(OCc4ccccc4S(C)(=O)=O)c(C#N)s3)c2cc1OC
inhibition: 17.3%
//
molecule: NS(=O)(=O)c1cccc(-c2cc3ccncc3cc2OCc2ccccc2)c1
inhibition: 7.94%
//
molecule: N#Cc1cccc(Nc2nccc(-c3cnn4ncccc34)n2)c1
inhibition: 7.72%
//
molecule: ON=C1CCc2cc(-c3nc(C4CCNCC4)[nH]c3-c3ccncc3)ccc21
inhibition: 1.63%
//
molecule: COc1cccc(-n2nc(C)c3c(N/N=C(\C)c4ccncc4)ncnc32)c1
inhibition: 1.78%
//
molecule: OCc1ccc(-c2nc(-c3ccccn3)c(-c3ccc4c(c3)OCO4)[nH]2)cc1
inhibition: 8.49%
//
molecule: O=C1Nc2ccc(-c3cccnc3)cc2C1=Cc1cc(Br)c(O)c(Br)c1
inhibition: 10.3%
//
molecule: c1ccc(Cc2nc3ccc(Nc4ncnc5ccccc45)cc3[nH]2)cc1
inhibition: 5.09%
//
molecule: COc1cc(/C=N/Nc2ncnc3c2cnn3C(C)C)ccc1O
inhibition: 1.29%
//
molecule: [O-][S+]1CCN(Cc2ccc(-c3ccc4ncnc(Nc5ccc(OCc6ccccc6)c(Cl)c5)c4c3)o2)CC1
inhibition: -0.27%
//
molecule: Cc1cc(O)cc(C)c1/C=C/c1cncc(C(=O)N(C)C)c1
inhibition: 3.57%
//
molecule: COc1cc2ncnc(Nc3ccc4c(cnn4Cc4ccccc4)c3)c2cc1OC
inhibition: 2.19%
//
molecule: COC(=O)Nc1nc2cc(Oc3ccc(NC(=O)Nc4cccc(Br)c4)cc3)ccc2[nH]1
inhibition: 3.41%

Where do these numbers come from? They come from ChEMBL document CHEMBL1961873.
